# Test system: CCRF-CEM
# ASSAY DETAILS: Cytotoxicity against HIV1 infected human CEM cells assessed as reduction in cell viability after 7 days by MTT assay
# Assay type: cell-based
# ASSAY SETUP: ccrf-cem, 168 h
MEASURE: CC50

Recall and state the measured CC50 for "CC(=O)c1cc2c(-c3ccc(N(C)C)cc3)c3c(nc2[nH]1)-c1ccccc1C3=O" . 24 µM

Recall and state the measured CC50 for "CCCc1c2c(nc3c1c(C#N)cn3C1CCCCC1)CCC2=O" . > 100 µM

====

# STUDY TARGET: Human immunodeficiency virus type 1 reverse transcriptase (Human immunodeficiency virus 1)
# ASSAY DETAILS: Inhibition of HIV1 RT using 17-mer DNA/Alexa Fluor 488 5'-end labeled DNA/Alexa Fluor 555-aha-dUTP as primer/template/substrate preincubated for 10 mins followed substarte addition measured after 30 mins by FRET assay
MEASURE: pIC50
# pIC50: negative log10 of molar concentration; output just the value

MOLECULE: CCCCn1cc(C#N)c2c(-c3ccc(C(F)(F)F)cc3F)c3c(nc21)-c1ccccc1C3=O
MEASURE: pIC50
NUMBER: 6.24
//
MOLECULE: CC(C)(C)n1cc(C#N)c2cc(C=O)cnc21
MEASURE: pIC50
NUMBER: 4.85
//
MOLECULE: CC1(C)CC(=O)c2cc3c(C#N)cn(Cc4ccccc4)c3nc2C1
MEASURE: pIC50
NUMBER: 4.92

Kindly consider the entry below.
Recall and state the measured pIC50 for "Cc1cccc(C)c1-c1c2c(nc3c1c(C#N)cn3Cc1ccccc1)CC(C)(C)CC2=O" . 4.59

====

# STUDY TARGET: Human immunodeficiency virus type 1 reverse transcriptase (Human immunodeficiency virus 1, UniProt Q72547, V108I)
pIC50: −log10 of the molar value.
MEASURE: pIC50

Here is how some compounds turned out for pIC50.
MOLECULE: CC(=O)c1c(C)nc2c(c(C#N)cn2Cc2ccccc2)c1-c1ccc([N+](=O)[O-])cc1
pIC50: < 4.00
--
MOLECULE: CC1(C)CC(=O)c2c(nc3c(c(C#N)cn3Cc3ccccc3)c2-c2ccccc2)C1
pIC50: < 4.00

Recall and state the measured pIC50 for "CCCCn1cc(C#N)c2c(-c3ccc(C(F)(F)F)cc3F)c3c(nc21)-c1ccccc1C3=O" . < 4.00

====

# STUDY TARGET: Human immunodeficiency virus type 1 reverse transcriptase (Human immunodeficiency virus 1, UniProt Q72547)
# ASSAY DETAILS: Inhibition of HIV1 RT using A5'-end 32P-labeled 24-mer primer/a48-mer template preincubated for 5 mins followed by 1 uM nucleotides addition measured after 10 mins by gel-based primer extension assay
MEASURE: pIC50
# pIC50: negative log10 of molar concentration; output just the value

Recall and state the measured pIC50 for "CC1(C)CC(=O)c2c(nc3c(c(C#N)cn3Cc3ccccc3)c2-c2ccccc2)C1" . 5.05

====

# STUDY TARGET: Human immunodeficiency virus type 1 reverse transcriptase (Human immunodeficiency virus 1, UniProt Q72547)
# ASSAY DETAILS: Inhibition of HIV1 RT using 17-mer DNA/Alexa Fluor 488 5'-end labeled DNA/Alexa Fluor 555-aha-dUTP as primer/template/substrate preincubated for 10 mins followed substarte addition measured after 30 mins by FRET assay
MEASURE: pIC50
# pIC50: negative log10 of molar concentration; output just the value

MOLECULE: CC1(C)CC(=O)c2c(nc3c(c(C#N)cn3Cc3ccccc3)c2-c2cccc(Cl)c2)C1
pIC50: 4.24

Recall and state the measured pIC50 for "CC1(C)CC(=O)c2c(nc3c(c(C#N)cn3Cc3ccccc3)c2-c2ccc([N+](=O)[O-])cc2)C1" . 5.85

Recall and state the measured pIC50 for "CC1(C)CC(=O)c2c(nc3c(c(C#N)cn3Cc3ccccc3)c2-c2ccc(F)cc2)C1" . 5.54

Recall and state the measured pIC50 for "CC(=O)c1cc2c(-c3ccc(N(C)C)cc3)c3c(nc2[nH]1)-c1ccccc1C3=O" . 4.82

Recall and state the measured pIC50 for "CC1(C)CC(=O)c2c(nc3c(c(C#N)cn3Cc3ccccc3)c2-c2c(F)cccc2F)C1" . 6.44

Recall and state the measured pIC50 for "CC(=O)c1c(C)nc2c(c(C#N)cn2Cc2ccccc2)c1-c1ccc([N+](=O)[O-])cc1" . 5.20

Recall and state the measured pIC50 for "CC1(C)CC(=O)c2c(nc3c(c(C#N)cn3Cc3ccccc3)c2-c2ccccc2)C1" . 6.14
